Taken from PubChem BioAssay AID1626.

- METHOD: M. tuberculosis H37Rv growth inhibitors, H37Rv strain (AID 1626);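 further: bacteria incubated seven days before Alamar blue readout; 0% = bacteria only wells and 100% = bacteria with antibiotic wells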
- CONDITION DESCRIPTION: stronger effect = higher value, concentration not given here
The campaign covered roughly 220,000 compounds. About 2,000 (0.91%) were called active. Inconclusive results (about 2%) are left out. Not all results are given here. Entries with a potency or affinity are not part of this list.
READOUT NAME: inhibition (%)
The figure you give is taken to be in %; do not add the unit.

{"COMPOUND": "CSCCC(NS(=O)(=O)c1ccc(Cl)cc1)C(=O)OCC(=O)c1c(C)[nH]c2ccccc12 (configuration not stated)", "ASSAY RESULT": -2.72}
{"COMPOUND": "CC(C)c1cc(C(=O)N2CCCC(C(=O)c3ccc4ccccc4c3)C2)on1 (configuration not stated)", "ASSAY RESULT": 5.22}
{"COMPOUND": "CCCOC(=O)c1ccc(NS(=O)(=O)c2cccs2)cc1", "ASSAY RESULT": 8.32}
{"COMPOUND": "O=C(NC1CC1)c1ccc(-c2nc3ccccc3s2)s1", "ASSAY RESULT": 46.3}
{"COMPOUND": "O=C(CN1CCC(n2nnc3cc(F)ccc32)CC1)NNC(=O)c1ccccc1", "ASSAY RESULT": -6.09}

Looking up Cc1cccc(Cl)c1OCCCCn1ccnc1 , I see its inhibition listed as 3.12

Looking up Cc1ccc(OCCCCn2ccnc2)c(Cl)c1 , I see its inhibition listed as 56.8

Looking up CCCc1[nH]n(-c2nc3ccccc3s2)c(=O)c1C=NCCCOC , I see its inhibition listed as -3.55

Looking up COc1cccc(CC2(CO)CCCN(C/C=C/c3ccccc3OC)C2)c1 (configuration not stated) , I see its inhibition listed as 39.9

Looking up COC(=O)c1[nH]c2cc(C)ccc2c1NC(=O)CN1CCN(c2ccccc2OC)CC1 , I see its inhibition listed as 45

Looking up OCCNc1nc(-c2ccccc2)nc2c1oc1ccccc12 , I see its inhibition listed as 1.56

Looking up CCC1Oc2ccc(C)cc2N(Cc2cccc(C)c2)C1=O (configuration not stated) , I see its inhibition listed as 17.5

Looking up NCCNC(=O)Cc1cccc(NC(=O)Cc2ccc(Nc3ncnc4c3ncn4[C@@H]3O[C@H](CO)[C@@H](O)[C@H]3O)cc2)c1 , I see its inhibition listed as 10.9

Looking up CC1(C)CC(=O)C=C(c2cccc3c2oc2ccccc23)C1 , I see its inhibition listed as 8.8

Looking up CCOP(=O)(OCC)C(Nc1cccc(C(F)(F)F)c1)c1ccc(F)cc1 (configuration not stated) , I see its inhibition listed as 0.98

Looking up COCCNC(=O)COC(=O)CSCc1nc2ccccc2s1 , I see its inhibition listed as -1.53

Looking up Cc1oc(-c2ccccc2)nc1C(=O)N1CCN(c2ccc(F)cc2)CC1 , I see its inhibition listed as 0.48

Looking up COc1cc(C(=O)N2CCN(S(=O)(=O)c3ccc(F)cc3)CC2)cc(OC)c1OC , I see its inhibition listed as -4.16

Looking up CC(C)(C)c1cc(-c2ccccc2)no1 , I see its inhibition listed as 10.7

Looking up CC(C)(C)OC(=O)NCCCCCc1nnc(SCc2cccc(F)c2)o1 , I see its inhibition listed as 75

Looking up CC1CC1C(=O)Nc1nc(-c2ccc(Cl)s2)cs1 (configuration not stated) , I see its inhibition listed as 9.3

Looking up Cc1noc(C)c1COC(=O)c1ccc(-c2nc3ccccc3s2)s1 , I see its inhibition listed as -10.8

Looking up CCOC(=O)CSc1ccc2nnc(CCNS(=O)(=O)c3ccc(C)cc3)n2n1 , I see its inhibition listed as 4.15

Looking up CCC(=O)NCCc1nc2ccccc2n1Cc1ccc(C)cc1 , I see its inhibition listed as -3.53
